Provide the reported hepatocyte CLint at 1 µM of each item.
- Assay Summary: Stability in pooled and cryopreserved rat hepatocytes assessed as intrinsic clearance measured per 10^6 cells at 1 uM measured for 90 mins by LC-MS/MS analysis
- Type: ADME, cell-based, Hepatocyte
- Condition Set: read-out: CLH
Where a SMILES comes first, the peptide text is derived from it. [ ]: non-standard residue; d: D form. ξ: configuration not given here. ξDip = NC(C(=O)O)C(c1ccccc1)c1ccccc1
Hi, when you answer, please include the unit after the number. Thanks!

Quick one: hepatocyte CLint at 1 µM of Cc1cc(=O)oc2cc(O)ccc12 ?
373 µL/min/1e6 cells

Param item: NCCCC[C@H](NC(=O)C(NC(=O)[C@H](Cc1c[nH]c2ccccc12)NC(=O)[C@H](CCCCN)NC(=O)[C@H](CCCCN)NC(=O)[C@H](Cc1c[nH]c2ccccc12)NC(=O)[C@H](Cc1c[nH]c2ccccc12)NC(=O)[C@H](CCCCN)NC(=O)[C@@H](N)CCCCN)C(c1ccccc1)c1ccccc1)C(N)=O (some centres undefined) (H-KKWWKKW[ξDip]K-NH2)
20 µL/min/1e6 cells

Another: C[C@]12CC[C@H]3[C@@H](CCC4=CC(=O)CC[C@@]43C)[C@@H]1CC[C@@H]2O
811 µL/min/1e6 cells

Please do the same for Cc1ncc2n1-c1ccc(Cl)cc1C(c1ccccc1F)=NC2 as well.
51 µL/min/1e6 cells

====

What pIC50 was measured for each of the following?
- Tested on: SK-OV-3
- Assay Summary: Cytotoxicity against human SK-OV-3 cells assessed as inhibition of cell proliferation incubated for 4 hrs by MTS assay
- Format: functional, cell-based
- Condition Set: SK-OV-3, 4 h
Where a SMILES comes first, the peptide text is derived from it. [ ]: non-standard residue; d: D form. ξ: configuration not given here. Bip = N[C@@H](Cc1ccc(-c2ccccc2)cc1)C(=O)O; ξBip = NC(Cc1ccc(-c2ccccc2)cc1)C(=O)O; ξDip = NC(C(=O)O)C(c1ccccc1)c1ccccc1
Remember, pIC50 is on a log scale: it is -log10 of the molar concentration.

Which value of pIC50 has been reported for NCCCC[C@H](NC(=O)[C@H](Cc1c[nH]c2ccccc12)NC(=O)[C@H](Cc1c[nH]c2ccccc12)NC(=O)[C@H](CCCCN)NC(=O)[C@H](CCCCN)NC(=O)[C@H](Cc1c[nH]c2ccccc12)NC(=O)[C@H](Cc1ccc(-c2ccccc2)cc1)NC(=O)[C@H](CCCCN)NC(=O)[C@@H](N)CCCCN)C(N)=O (H-KK[Bip]WKKWWK-NH2) in the records?
4.90

// query: NCCCC[C@H](NC(=O)C(NC(=O)[C@H](Cc1c[nH]c2ccccc12)NC(=O)[C@H](CCCCN)NC(=O)[C@H](CCCCN)NC(=O)[C@H](Cc1c[nH]c2ccccc12)NC(=O)[C@H](Cc1c[nH]c2ccccc12)NC(=O)[C@H](CCCCN)NC(=O)[C@@H](N)CCCCN)C(c1ccccc1)c1ccccc1)C(N)=O (stereo partly drawn) (H-KKWWKKW[ξDip]K-NH2)
5.14

NCCCC[C@H](NC(=O)[C@H](Cc1c[nH]c2ccccc12)NC(=O)[C@H](Cc1c[nH]c2ccccc12)NC(=O)[C@H](CCCCN)NC(=O)[C@H](CCCCN)NC(=O)[C@H](Cc1c[nH]c2ccccc12)NC(=O)C(Cc1ccc(-c2ccccc2)cc1)NC(=O)[C@H](CCCCN)NC(=O)[C@@H](N)CCCCN)C(N)=O (stereo partly drawn) (H-KK[ξBip]WKKWWK-NH2) ?
4.75

====

- Tested on: MCF7
- Assay Summary: Cytotoxicity against human MCF7 cells assessed as inhibition of cell proliferation incubated for 4 hrs by MTS assay
- Format: functional, cell-based
- Condition Set: MCF7, 4 h
Where a SMILES comes first, the peptide text is derived from it. [ ]: non-standard residue; d: D form. ξ: configuration not given here. Bip = N[C@@H](Cc1ccc(-c2ccccc2)cc1)C(=O)O; ξBip = NC(Cc1ccc(-c2ccccc2)cc1)C(=O)O; ξDip = NC(C(=O)O)C(c1ccccc1)c1ccccc1
Experimental Endpoint: IC50 (µM)
Output spec: scalar in µM, unitless text.

Data request, read-out IC50, for NCCCC[C@H](NC(=O)[C@H](Cc1c[nH]c2ccccc12)NC(=O)[C@H](CCCCN)NC(=O)[C@H](CCCCN)NC(=O)C(NC(=O)[C@H](Cc1c[nH]c2ccccc12)NC(=O)[C@H](CCCCN)NC(=O)[C@H](CCCCN)NC(=O)[C@@H](N)Cc1c[nH]c2ccccc12)C(c1ccccc1)c1ccccc1)C(N)=O (stereo not given in full) (H-WKKW[ξDip]KKWK-NH2)
8.9

Another: NCCCC[C@H](NC(=O)C(NC(=O)[C@H](Cc1c[nH]c2ccccc12)NC(=O)[C@H](CCCCN)NC(=O)[C@H](CCCCN)NC(=O)[C@H](Cc1c[nH]c2ccccc12)NC(=O)[C@H](Cc1c[nH]c2ccccc12)NC(=O)[C@H](CCCCN)NC(=O)[C@@H](N)CCCCN)C(c1ccccc1)c1ccccc1)C(N)=O (stereo not given in full) (H-KKWWKKW[ξDip]K-NH2)
2.2

Continue with NCCCC[C@H](NC(=O)[C@H](Cc1c[nH]c2ccccc12)NC(=O)[C@H](Cc1c[nH]c2ccccc12)NC(=O)[C@H](CCCCN)NC(=O)[C@H](CCCCN)NC(=O)[C@H](Cc1c[nH]c2ccccc12)NC(=O)C(Cc1ccc(-c2ccccc2)cc1)NC(=O)[C@H](CCCCN)NC(=O)[C@@H](N)CCCCN)C(N)=O (stereo not given in full) (H-KK[ξBip]WKKWWK-NH2)
6.8

# iterate: N=C(N)NCCC[C@H](NC(=O)[C@H](Cc1c[nH]c2ccccc12)NC(=O)[C@H](Cc1c[nH]c2ccccc12)NC(=O)[C@H](CCCNC(=N)N)NC(=O)[C@H](CCCNC(=N)N)NC(=O)C(NC(=O)[C@H](Cc1c[nH]c2ccccc12)NC(=O)[C@H](CCCNC(=N)N)NC(=O)[C@@H](N)CCCNC(=N)N)C(c1ccccc1)c1ccccc1)C(N)=O (stereo not given in full) (H-RRW[ξDip]RRWWR-NH2)
5.5

Same question, NCCCC[C@H](NC(=O)[C@H](Cc1c[nH]c2ccccc12)NC(=O)[C@H](Cc1c[nH]c2ccccc12)NC(=O)[C@H](CCCCN)NC(=O)[C@H](CCCCN)NC(=O)[C@H](Cc1c[nH]c2ccccc12)NC(=O)[C@H](Cc1ccc(-c2ccccc2)cc1)NC(=O)[C@H](CCCCN)NC(=O)[C@@H](N)CCCCN)C(N)=O (H-KK[Bip]WKKWWK-NH2) this time
4.6

====

- Assay Summary: Cytotoxicity against human MRC5 cells assessed as inhibition of cell proliferation incubated for 4 hrs by MTT assay
- Assay type: toxicity, cell-based
Where a SMILES comes first, the peptide text is derived from it. [ ]: non-standard residue; d: D form. ξ: configuration not given here. ξAla(9-anthryl) = NC(Cc1c2ccccc2cc2ccccc12)C(=O)O; Bip = N[C@@H](Cc1ccc(-c2ccccc2)cc1)C(=O)O; Dip = N[C@H](C(=O)O)C(c1ccccc1)c1ccccc1; ξBip = NC(Cc1ccc(-c2ccccc2)cc1)C(=O)O; ξDip = NC(C(=O)O)C(c1ccccc1)c1ccccc1; ξ2Nal = NC(Cc1ccc2ccccc2c1)C(=O)O; ξOrn = NCCCC(N)C(=O)O
Record form. Attribute: IC50 at 4 h. Fill in for each entry.

// query IC50 at 4 h value for entry NCCCC(N)C(=O)NC(CCCN)C(=O)N[C@@H](Cc1c[nH]c2ccccc12)C(=O)NC(C(=O)NC(CCCN)C(=O)NC(CCCN)C(=O)N[C@@H](Cc1c[nH]c2ccccc12)C(=O)N[C@@H](Cc1c[nH]c2ccccc12)C(=O)NC(CCCN)C(N)=O)C(c1ccccc1)c1ccccc1 (stereo partly specified) (H-[ξOrn][ξOrn]W[ξDip][ξOrn][ξOrn]WW[ξOrn]-NH2)
323 µM

Let us now turn to NCCCC[C@H](NC(=O)C(NC(=O)[C@H](Cc1c[nH]c2ccccc12)NC(=O)[C@H](CCCCN)NC(=O)[C@H](CCCCN)NC(=O)C(NC(=O)[C@H](Cc1c[nH]c2ccccc12)NC(=O)[C@H](CCCCN)NC(=O)[C@@H](N)CCCCN)C(c1ccccc1)c1ccccc1)C(c1ccccc1)c1ccccc1)C(N)=O (stereo partly specified) (H-KKW[ξDip]KKW[ξDip]K-NH2)
80 µM

Consider next the compound NCCCC[C@H](NC(=O)[C@H](Cc1c[nH]c2ccccc12)NC(=O)[C@H](Cc1c[nH]c2ccccc12)NC(=O)[C@H](CCCCN)NC(=O)[C@H](CCCCN)NC(=O)C(Cc1c2ccccc2cc2ccccc12)NC(=O)[C@H](Cc1c[nH]c2ccccc12)NC(=O)[C@H](CCCCN)NC(=O)[C@@H](N)CCCCN)C(N)=O (stereo partly specified) (H-KKW[ξAla(9-anthryl)]KKWWK-NH2) in the same way.
40 µM

Try this compound too: NCCCC[C@H](NC(=O)[C@H](Cc1c[nH]c2ccccc12)NC(=O)[C@H](Cc1c[nH]c2ccccc12)NC(=O)[C@H](CCCCN)NC(=O)[C@H](CCCCN)NC(=O)[C@@H](NC(=O)[C@H](Cc1c[nH]c2ccccc12)NC(=O)[C@H](CCCCN)NC(=O)[C@@H](N)CCCCN)C(c1ccccc1)c1ccccc1)C(N)=O (H-KKW[Dip]KKWWK-NH2)
> 347 µM

Now the same for NCCCC[C@H](NC(=O)[C@H](Cc1c[nH]c2ccccc12)NC(=O)[C@H](Cc1c[nH]c2ccccc12)NC(=O)[C@H](CCCCN)NC(=O)[C@H](CCCCN)NC(=O)C(Cc1ccc(-c2ccccc2)cc1)NC(=O)[C@H](Cc1c[nH]c2ccccc12)NC(=O)[C@H](CCCCN)NC(=O)[C@@H](N)CCCCN)C(N)=O (stereo partly specified) (H-KKW[ξBip]KKWWK-NH2)
174 µM

Query NCCCC[C@H](NC(=O)C(NC(=O)[C@H](Cc1c[nH]c2ccccc12)NC(=O)[C@H](CCCCN)NC(=O)[C@H](CCCCN)NC(=O)[C@H](Cc1c[nH]c2ccccc12)NC(=O)[C@H](Cc1c[nH]c2ccccc12)NC(=O)[C@H](CCCCN)NC(=O)[C@@H](N)CCCCN)C(c1ccccc1)c1ccccc1)C(N)=O (stereo partly specified) (H-KKWWKKW[ξDip]K-NH2) next
34.3 µM

Follow-up entry: NCCCC[C@H](NC(=O)C(NC(=O)[C@H](Cc1c[nH]c2ccccc12)NC(=O)[C@H](CCCCN)NC(=O)[C@H](CCCCN)NC(=O)[C@H](Cc1c[nH]c2ccccc12)NC(=O)[C@H](Cc1c[nH]c2ccccc12)NC(=O)[C@@H](N)CCCCN)C(c1ccccc1)c1ccccc1)C(N)=O (stereo partly specified) (H-KWWKKW[ξDip]K-NH2)
43.9 µM

Then what about the compound NCCCC[C@H](NC(=O)[C@H](Cc1c[nH]c2ccccc12)NC(=O)[C@H](Cc1c[nH]c2ccccc12)NC(=O)[C@H](CCCCN)NC(=O)[C@H](CCCCN)NC(=O)[C@H](Cc1c[nH]c2ccccc12)NC(=O)[C@H](Cc1ccc(-c2ccccc2)cc1)NC(=O)[C@H](CCCCN)NC(=O)[C@@H](N)CCCCN)C(N)=O (H-KK[Bip]WKKWWK-NH2) ?
87 µM

Then what about the compound NCCCC[C@H](NC(=O)C(NC(=O)[C@H](Cc1c[nH]c2ccccc12)NC(=O)[C@H](CCCCN)NC(=O)[C@H](CCCCN)NC(=O)[C@H](Cc1c[nH]c2ccccc12)NC(=O)[C@@H](N)Cc1c[nH]c2ccccc12)C(c1ccccc1)c1ccccc1)C(N)=O (stereo partly specified) (H-WWKKW[ξDip]K-NH2) ?
53.2 µM

Field entry: NCCCC[C@H](NC(=O)[C@H](Cc1c[nH]c2ccccc12)NC(=O)[C@H](Cc1c[nH]c2ccccc12)NC(=O)[C@H](CCCCN)NC(=O)[C@H](CCCCN)NC(=O)C(Cc1ccc2ccccc2c1)NC(=O)[C@H](Cc1c[nH]c2ccccc12)NC(=O)[C@H](CCCCN)NC(=O)[C@@H](N)CCCCN)C(N)=O (stereo partly specified) (H-KKW[ξ2Nal]KKWWK-NH2)
257 µM

Do the same for NCCCC[C@H](NC(=O)[C@H](Cc1c[nH]c2ccccc12)NC(=O)C(NC(=O)[C@H](CCCCN)NC(=O)[C@H](CCCCN)NC(=O)[C@H](Cc1c[nH]c2ccccc12)NC(=O)[C@H](Cc1c[nH]c2ccccc12)NC(=O)[C@H](CCCCN)NC(=O)[C@@H](N)CCCCN)C(c1ccccc1)c1ccccc1)C(N)=O (stereo partly specified) (H-KKWWKK[ξDip]WK-NH2) please
102 µM

# credit: ChEMBL document CHEMBL5257020
